System: 786-0
measurement-description: NCI tumour cell line growth inhibition, 48 h
The source made the active and inactive calls. Rule as the data show it: active = GI50 up to about 1.1 µM and inactive = higher. Non-standard residues stand in square brackets, D forms with d. Residues, ends and D or L forms follow the SMILES beside them. ξ: configuration not given here. *: point of attachment. dThr(3ξ) = CC(O)[C@@H](N)C(=O)O; dNMeL = CN[C@H](CC(C)C)C(=O)O; OBn = c1ccc(CO*)cc1; ξLac = CC(O)C(=O)O
// allowed return values: 1 for active, 0 for inactive

COc1ccc(Nc2nc3c(N)cc(C(F)(F)F)cc3nc2-c2ccccc2)cc1OC	0
Cc1cn(Cc2ccccc2CCl)c(=O)[nH]c1=O	0
Cc1cc([N+](=O)[O-])ccc1Sc1c2ccccc2nc2ccccc12	0
N#Cc1ccc(C2ON=C(c3ccccc3)N2C23CC4CC(CC(C4)C2)C3)cc1 (centres undefined)	0
O=C1CC(c2ccc(O)cc2)C2(O1)C(=O)OC(C(O)CO)C2O (centres undefined)	0

Dear all, I need the recorded test outcome for CC(=O)OC(C)[C@@H](NC(=O)[C@@H](CC(C)C)N(C)C(=O)[C@@H]1CCCN1C(=O)C(C)O)C(=O)OCc1ccccc1 (some centres undefined) (H-[ξLac]P[dNMeL][dThr(3ξ)](Ac)-OBn) , thank you. 0

Dear all, I need the recorded test outcome for CCCC1NC(C#N)(C#N)C(CCC)NC1(C#N)C#N (centres undefined) , thank you. 1

Dear all, I need the recorded test outcome for COc1ccc2sc(-n3nc4ccccc4c3Nc3nc4ccc(OC)cc4s3)nc2c1 , thank you. 0

Dear all, I need the recorded test outcome for CN(NC(=O)/C(=C/C=C/c1ccccc1)NC(=O)c1ccccc1)C1=C(Cl)C(=O)[N+](c2ccccc2)=CC1 , thank you. 0
